Values compiled from ChEMBL document CHEMBL3885861.

- Species on record: Rattus norvegicus
- method summary: Open TG-GATES - Regimen: Single
- Assay type: toxicity, organism-based, Sprague-Dawley
- Parameters: regimen Single, gender Male, age 6 weeks
- assay context: in vivo, po, 0 mg/kg, 6 h, tissue Plasma, route gavage, dose level Control
endpoint: ALT (IU/L)
Numbers only here, please. The scale is IU/L.

The molecule listed as `Cc1cccc(Nc2ccccc2C(=O)O)c1C` has a reported ALT of 36.8

`Clc1c(Cl)c(Cl)c(Cl)c(Cl)c1Cl` has a reported ALT of 32

Note to self: ALT recorded for COc1cc([C@@H]2c3cc4c(cc3[C@@H](O[C@@H]3O[C@@H]5CO[C@@H](C)O[C@H]5[C@H](O)[C@H]3O)[C@H]3COC(=O)[C@H]23)OCO4)cc(OC)c1O [ETOPOSIDE] was 36

# ALT of `C#C[C@]1(O)CC[C@H]2[C@@H]3CCC4=Cc5oncc5C[C@]4(C)[C@H]3CC[C@@]21C` = 39.4

Field ALT (entry `CN1C(C(=O)Nc2ccccn2)=C(O)c2sc(Cl)cc2S1(=O)=O` ) reads 33.4

ALT reading for `CCOC(=O)[C@H](CCc1ccccc1)N[C@@H](C)C(=O)N1CCC[C@H]1C(=O)O` : 34.6

According to the records, this molecule CC(CN1c2ccccc2Sc2ccccc21)N(C)C (centres undefined) displays ALT of 41.4

Lab note: `CN(C)[C@@H]1C(O)=C(C(N)=O)C(=O)[C@@]2(O)C(O)=C3C(=O)c4c(O)cccc4[C@@](C)(O)[C@H]3C[C@@H]12` gave ALT of 36.2

Looking up C1CCC(C(CC2CCCCN2)C2CCCCC2)CC1 (centres undefined) , I found its ALT recorded as 37.8

----------
- Species on record: Rattus norvegicus
- method summary: Open TG-GATES - Regimen: Single
- Type: toxicity, organism-based, Sprague-Dawley
- Design: regimen Single, gender Male, age 6 weeks
- assay context: in vivo, po, 0 mg/kg, 6 h, tissue Blood, route gavage, dose level Control
endpoint: MCV (fL)
The reply should be a number in fL, with the unit left off.

So for `Clc1c(Cl)c(Cl)c(Cl)c(Cl)c1Cl` , the logged MCV turned out to be 61.5

According to the records, this compound CC(=O)Nc1nnc(S(N)(=O)=O)s1 [ACETAZOLAMIDE] displays MCV of 62.8

Noted for `CN1C(C(=O)Nc2ccccn2)=C(O)c2sc(Cl)cc2S1(=O)=O` : its MCV reads 62.1

Just so you know, measured MCV for CC(CN1c2ccccc2Sc2ccccc21)N(C)C (stereo not given) came out at 62.5

// sample C1CCC(C(CC2CCCCN2)C2CCCCC2)CC1 (stereo not given) , its MCV was 65.6

----------
For each record, write down the corresponding PL.
- Species: Rattus norvegicus
- method summary: Open TG-GATES - Regimen: Single
- Format: toxicity, organism-based, Sprague-Dawley
- Design: regimen Single, gender Male, age 6 weeks
- assay context: in vivo, po, 0 mg/kg, 24 h, tissue Plasma, route gavage, dose level Control
Output should be the measured figure followed by the unit it is expressed in.

Entry `CCOC(=O)[C@H](CCc1ccccc1)N[C@@H](C)C(=O)N1CCC[C@H]1C(=O)O` — recorded PL = 155 mg/dL

So for `CN1C(C(=O)Nc2ccccn2)=C(O)c2sc(Cl)cc2S1(=O)=O` , the logged PL turned out to be 138.4 mg/dL

PL measured on C1CCC(C(CC2CCCCN2)C2CCCCC2)CC1 (stereo not drawn) = 154.2 mg/dL

----------
- Species on record: Rattus norvegicus
- method summary: Open TG-GATES - Regimen: Daily Repeat
- Assay type: toxicity, organism-based, Sprague-Dawley
- Set-up: regimen Daily Repeat, gender Male, age 6 weeks
- assay context: in vivo, po, 0 mg/kg, […], tissue Blood, route gavage, dose level Control, time 7 day
Give measured Eos for each item. Keep answers brief.
Your answer should be a plain number; it is taken to be in %.

Lab note: `CCOC(=O)[C@H](CCc1ccccc1)N[C@@H](C)C(=O)N1CCC[C@H]1C(=O)O` gave Eos of 1.2

The value of Eos measured for the molecule `CN(C)[C@@H]1C(O)=C(C(N)=O)C(=O)[C@@]2(O)C(O)=C3C(=O)c4c(O)cccc4[C@@](C)(O)[C@H]3C[C@@H]12` turned out to be 1

Field Eos (entry `Cc1cccc(Nc2ccccc2C(=O)O)c1C` ) reads 0.8

The molecule identified as C1CCC(C(CC2CCCCN2)C2CCCCC2)CC1 (centres undefined) registered its Eos at 0.6

----------
- Species on record: Rattus norvegicus
- method summary: Open TG-GATES - Regimen: Daily Repeat
- Assay type: toxicity, organism-based, Sprague-Dawley
- Parameters: regimen Daily Repeat, gender Male, age 6 weeks
- assay context: in vivo, po, 0 mg/kg, […], tissue Plasma, route gavage, dose level Control, time 14 day
endpoint: gamma-GTP (IU/L)
Just the number please, in IU/L, no unit attached.

So, CN(C)[C@@H]1C(O)=C(C(N)=O)C(=O)[C@@]2(O)C(O)=C3C(=O)c4c(O)cccc4[C@@](C)(O)[C@H]3C[C@@H]12 [TETRACYCLINE] ? Its gamma-GTP was 1.6

gamma-GTP in this record for C1CCC(C(CC2CCCCN2)C2CCCCC2)CC1 (stereo not given) [PERHEXILINE] : 1

gamma-GTP in this record for CC(CN1c2ccccc2Sc2ccccc21)N(C)C (stereo not given) [PROMETHAZINE] : 3

Query CC(=O)Nc1nnc(S(N)(=O)=O)s1 [ACETAZOLAMIDE] yields gamma-GTP of 2.4

The recorded gamma-GTP for `CCOC(=O)[C@H](CCc1ccccc1)N[C@@H](C)C(=O)N1CCC[C@H]1C(=O)O` is 1.4

----------
- Organism: Rattus norvegicus
- method summary: Open TG-GATES - Regimen: Single
- Assay type: toxicity, organism-based, Sprague-Dawley
- Design: regimen Single, gender Male, age 6 weeks
- assay context: in vivo, po, 0 mg/kg, 6 h, tissue Blood, route gavage, dose level Control
Provide the recorded Eos for the entries that follow.
Just the number in %, nothing appended.

The value of Eos measured for the compound C1CCC(C(CC2CCCCN2)C2CCCCC2)CC1 (stereo not given) turned out to be 0.4

Noted for `CN(C)[C@@H]1C(O)=C(C(N)=O)C(=O)[C@@]2(O)C(O)=C3C(=O)c4c(O)cccc4[C@@](C)(O)[C@H]3C[C@@H]12` : its Eos reads 0.8

Record CC(=O)Nc1nnc(S(N)(=O)=O)s1 [ACETAZOLAMIDE] , field Eos: 0.8

// CC(CN1c2ccccc2Sc2ccccc21)N(C)C (stereo not given) : Eos value = 1

Item: `Clc1c(Cl)c(Cl)c(Cl)c(Cl)c1Cl` | Eos: 0.6

Reported Eos of COc1cc([C@@H]2c3cc4c(cc3[C@@H](O[C@@H]3O[C@@H]5CO[C@@H](C)O[C@H]5[C@H](O)[C@H]3O)[C@H]3COC(=O)[C@H]23)OCO4)cc(OC)c1O [ETOPOSIDE] : 0.8

Measured Eos, `CN1C(C(=O)Nc2ccccn2)=C(O)c2sc(Cl)cc2S1(=O)=O` : 1

The compound identified as `Cc1cccc(Nc2ccccc2C(=O)O)c1C` registered its Eos at 1

Entry under test: `CCOC(=O)[C@H](CCc1ccccc1)N[C@@H](C)C(=O)N1CCC[C@H]1C(=O)O` . Its Eos was 1

Eos measured on `C#C[C@]1(O)CC[C@H]2[C@@H]3CCC4=Cc5oncc5C[C@]4(C)[C@H]3CC[C@@]21C` = 1

----------
For each record, write down the corresponding MCV.
- Species on record: Rattus norvegicus
- method summary: Open TG-GATES - Regimen: Single
- Type: toxicity, organism-based, Sprague-Dawley
- Set-up: regimen Single, gender Male, age 6 weeks
- assay context: in vivo, po, 0 mg/kg, 3 h, tissue Blood, route gavage, dose level Control
API: value field is a number in fL; no unit string.

// field: MCV; key: COc1cc([C@@H]2c3cc4c(cc3[C@@H](O[C@@H]3O[C@@H]5CO[C@@H](C)O[C@H]5[C@H](O)[C@H]3O)[C@H]3COC(=O)[C@H]23)OCO4)cc(OC)c1O [ETOPOSIDE] ; value = 66.2

# MCV of `CN1C(C(=O)Nc2ccccn2)=C(O)c2sc(Cl)cc2S1(=O)=O` = 62.2

Looking up `C#C[C@]1(O)CC[C@H]2[C@@H]3CCC4=Cc5oncc5C[C@]4(C)[C@H]3CC[C@@]21C` , I found its MCV recorded as 62.5

// MCV lookup, compound = `CCOC(=O)[C@H](CCc1ccccc1)N[C@@H](C)C(=O)N1CCC[C@H]1C(=O)O` , result: 66.3

Reported MCV for C1CCC(C(CC2CCCCN2)C2CCCCC2)CC1 (stereo not given) was 62.3
